- assay explanation: Microdose study of 14C-AlphaHGA in healthy volunteers, plasma pharmacokinetics (AMS)
- Format: in vivo, human
- assay setup: plasma, Period 2, Mean
Counter-ions that a name gives are not always drawn.
recorded metric: Cmax (nM)
Numbers only, in nM.

## Input So what's the measured Cmax for this one? NC(=O)C(N)O (stereo not drawn) [AlphaHGA, α-Hydroxy-glycinamide hydrochloride]
## Output 0.0574

---

- assay target: dipeptidylpeptidase activity associated with BS (Bos taurus)
- Sequence (P81425 38-765 limits assumed): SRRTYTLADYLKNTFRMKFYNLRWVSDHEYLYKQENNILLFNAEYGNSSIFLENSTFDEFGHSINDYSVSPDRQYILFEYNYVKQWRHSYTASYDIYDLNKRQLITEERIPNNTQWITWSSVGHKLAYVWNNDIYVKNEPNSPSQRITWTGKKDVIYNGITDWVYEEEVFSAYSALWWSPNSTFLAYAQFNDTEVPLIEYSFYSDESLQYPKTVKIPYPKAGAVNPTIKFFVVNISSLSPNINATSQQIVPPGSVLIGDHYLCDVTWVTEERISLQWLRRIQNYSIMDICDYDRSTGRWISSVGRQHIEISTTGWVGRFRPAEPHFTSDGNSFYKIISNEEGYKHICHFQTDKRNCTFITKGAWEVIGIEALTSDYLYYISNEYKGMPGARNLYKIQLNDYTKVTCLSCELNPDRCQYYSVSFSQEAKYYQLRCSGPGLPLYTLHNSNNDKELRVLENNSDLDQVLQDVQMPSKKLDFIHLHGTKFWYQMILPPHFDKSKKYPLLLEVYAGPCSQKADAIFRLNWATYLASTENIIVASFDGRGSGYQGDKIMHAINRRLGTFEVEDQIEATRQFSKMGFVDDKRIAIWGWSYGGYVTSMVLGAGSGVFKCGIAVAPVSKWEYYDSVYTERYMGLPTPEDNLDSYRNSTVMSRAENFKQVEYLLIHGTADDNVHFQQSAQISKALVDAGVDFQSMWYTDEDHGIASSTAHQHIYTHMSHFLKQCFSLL
- assay explanation: Inhibition of dipeptidylpeptidase activity of fetal bovine serum (substrate GP-pNA)
- assay setup: read-out: 50% inhibitory concentration (IC50)
recorded metric: IC50
Phrase the answer as number then unit, nothing more needed.

## Input So what's the measured IC50 for this one? CCC(C)C(N)C(=O)N1CCCC1 (stereo not shown)
## Output 99 µM

Just for reference, patent US20080076824A1 is where these values come from.
